Just for reference, paper PMC10424705 is where these values come from.

# experimental_target: UNC-105h (Caenorhabditis elegans, UniProt Q09274)
# Construct: isoform h cDNA in KSM vector, Xenopus laevis oocytes, homomeric channel (trimer by known biology)
# Sequence (Q09274 1-887): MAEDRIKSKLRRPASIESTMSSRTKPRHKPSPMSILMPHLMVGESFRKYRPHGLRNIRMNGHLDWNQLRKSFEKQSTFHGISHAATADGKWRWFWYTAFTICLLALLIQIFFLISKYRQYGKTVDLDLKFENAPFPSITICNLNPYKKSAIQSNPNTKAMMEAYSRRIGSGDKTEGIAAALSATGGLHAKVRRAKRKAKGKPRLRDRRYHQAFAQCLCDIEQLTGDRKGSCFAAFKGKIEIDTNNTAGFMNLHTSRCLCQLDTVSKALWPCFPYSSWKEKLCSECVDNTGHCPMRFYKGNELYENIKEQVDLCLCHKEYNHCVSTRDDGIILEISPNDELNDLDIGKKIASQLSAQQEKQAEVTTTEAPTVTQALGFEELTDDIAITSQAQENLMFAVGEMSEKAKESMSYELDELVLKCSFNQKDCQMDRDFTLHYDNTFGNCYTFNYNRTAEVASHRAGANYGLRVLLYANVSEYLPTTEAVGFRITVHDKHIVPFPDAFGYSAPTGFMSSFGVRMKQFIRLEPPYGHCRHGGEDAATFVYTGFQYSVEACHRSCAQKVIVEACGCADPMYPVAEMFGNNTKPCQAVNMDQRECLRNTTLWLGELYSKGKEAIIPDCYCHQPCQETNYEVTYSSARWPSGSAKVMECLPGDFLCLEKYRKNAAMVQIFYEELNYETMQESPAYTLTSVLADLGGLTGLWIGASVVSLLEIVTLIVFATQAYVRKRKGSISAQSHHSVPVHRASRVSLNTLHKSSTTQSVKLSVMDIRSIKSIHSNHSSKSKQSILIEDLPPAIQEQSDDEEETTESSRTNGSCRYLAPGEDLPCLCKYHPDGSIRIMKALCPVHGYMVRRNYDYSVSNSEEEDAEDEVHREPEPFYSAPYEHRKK
# assay: two-electrode voltage clamp, Xenopus oocytes
# condition_info: pH 7.4, -60 mV, ND96, room temperature; second, current-restoring phase of biphasic response; text b54 prints 6.7 µM instead
experimental_endpoint: EC50 (µM)

[
  {
    "compound": "N=C(N)NC(=O)c1nc(Cl)c(N)nc1N [amiloride]",
    "experimental_target": "UNC-105h (Caenorhabditis elegans, UniProt Q09274)",
    "experimental_endpoint": "EC50",
    "unit_info": "µM",
    "observed_value": 5.9
  }
]
